- assayed target: Cyclin E1 (Homo sapiens, UniProt P24864+Q96SW2)
- Sequence (P24864 whole entry): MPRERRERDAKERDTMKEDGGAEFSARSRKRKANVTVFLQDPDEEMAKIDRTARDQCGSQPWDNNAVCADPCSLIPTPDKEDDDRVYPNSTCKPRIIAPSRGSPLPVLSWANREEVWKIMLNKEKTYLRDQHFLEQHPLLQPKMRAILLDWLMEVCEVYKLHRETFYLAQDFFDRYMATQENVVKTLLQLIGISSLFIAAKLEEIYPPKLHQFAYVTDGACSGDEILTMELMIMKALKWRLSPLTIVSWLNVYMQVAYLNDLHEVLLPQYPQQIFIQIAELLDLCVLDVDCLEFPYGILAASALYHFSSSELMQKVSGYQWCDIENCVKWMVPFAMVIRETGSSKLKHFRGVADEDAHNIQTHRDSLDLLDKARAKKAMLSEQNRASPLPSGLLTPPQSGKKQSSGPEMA
- Sequence (Q96SW2 whole entry): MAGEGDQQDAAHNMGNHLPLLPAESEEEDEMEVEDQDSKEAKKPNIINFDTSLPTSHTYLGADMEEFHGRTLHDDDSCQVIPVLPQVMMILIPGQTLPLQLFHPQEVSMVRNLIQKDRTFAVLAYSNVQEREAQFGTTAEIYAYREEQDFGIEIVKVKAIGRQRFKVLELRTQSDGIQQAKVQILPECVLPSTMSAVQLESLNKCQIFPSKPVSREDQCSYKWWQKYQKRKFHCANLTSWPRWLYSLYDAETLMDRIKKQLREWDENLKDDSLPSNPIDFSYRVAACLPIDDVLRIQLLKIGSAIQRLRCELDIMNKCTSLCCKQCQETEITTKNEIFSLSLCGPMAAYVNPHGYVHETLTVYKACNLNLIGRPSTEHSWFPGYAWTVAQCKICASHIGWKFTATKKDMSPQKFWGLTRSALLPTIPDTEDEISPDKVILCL
- Sequence (Q16531 whole entry partner): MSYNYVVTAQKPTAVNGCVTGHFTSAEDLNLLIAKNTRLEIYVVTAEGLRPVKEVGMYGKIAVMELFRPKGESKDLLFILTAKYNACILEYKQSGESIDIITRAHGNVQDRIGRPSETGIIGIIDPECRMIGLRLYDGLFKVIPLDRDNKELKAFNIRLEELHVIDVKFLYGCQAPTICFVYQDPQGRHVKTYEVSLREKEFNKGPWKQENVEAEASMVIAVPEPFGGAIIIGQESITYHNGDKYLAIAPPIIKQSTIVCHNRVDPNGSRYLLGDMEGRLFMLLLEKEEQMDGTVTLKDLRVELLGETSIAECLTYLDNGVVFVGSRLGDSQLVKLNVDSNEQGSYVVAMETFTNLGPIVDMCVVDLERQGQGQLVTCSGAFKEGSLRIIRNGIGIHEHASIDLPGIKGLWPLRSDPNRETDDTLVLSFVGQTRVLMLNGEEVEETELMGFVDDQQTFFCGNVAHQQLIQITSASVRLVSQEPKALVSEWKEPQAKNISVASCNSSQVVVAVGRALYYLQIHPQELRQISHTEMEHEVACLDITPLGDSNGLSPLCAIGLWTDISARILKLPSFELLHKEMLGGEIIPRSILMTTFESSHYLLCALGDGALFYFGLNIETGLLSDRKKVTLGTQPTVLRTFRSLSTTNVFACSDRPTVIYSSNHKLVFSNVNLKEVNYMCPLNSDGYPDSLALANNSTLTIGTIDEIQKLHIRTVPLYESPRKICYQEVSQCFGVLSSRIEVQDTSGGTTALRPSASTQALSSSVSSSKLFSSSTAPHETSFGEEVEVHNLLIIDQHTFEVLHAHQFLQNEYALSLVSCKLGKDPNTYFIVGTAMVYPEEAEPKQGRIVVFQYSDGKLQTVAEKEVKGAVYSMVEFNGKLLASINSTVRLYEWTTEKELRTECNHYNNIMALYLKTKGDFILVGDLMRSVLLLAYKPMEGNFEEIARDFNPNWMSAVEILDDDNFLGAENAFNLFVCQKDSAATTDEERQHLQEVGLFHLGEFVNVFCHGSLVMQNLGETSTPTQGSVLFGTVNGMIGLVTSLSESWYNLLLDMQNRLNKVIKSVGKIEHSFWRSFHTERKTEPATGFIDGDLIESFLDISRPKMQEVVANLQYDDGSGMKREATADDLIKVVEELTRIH
- run description: Cyclin E1 Cellular Degradation Assay (MSD)
- Assay type: cell-based
- Set-up: endogenous in cells; host or cells: OVCAR3
- experimental setup: Cyclin E1 cellular degradation, maximum degradation
observation type: Dmax (%)

compound="COc1cc(Oc2cc(F)c(F)cc2C)ccc1NC(=O)OCc1ccc2c(c1OC)C(=O)N(C1CCC(=O)NC1=O)C2 (centres unmarked)" meas_value=102
compound="COc1c(COC(=O)Nc2ccc(Oc3ccc(F)c(F)c3)cc2Cl)ccc2c1C(=O)N(C1CCC(=O)NC1=O)C2 (centres unmarked)" meas_value=105
compound="O=C1CCC(N2Cc3ccc(COC(=O)Nc4ccc(Oc5ccc(F)cc5F)cc4)c(Oc4ccccc4)c3C2=O)C(=O)N1 (centres unmarked)" meas_value=99
compound="O=C1CCC(N2Cc3ccc(COC(=O)Nc4ccc(Oc5ccc(F)c(F)c5)cc4)c(OC4CCCC4)c3C2=O)C(=O)N1 (centres unmarked)" meas_value=108
compound="COc1c(COC(=O)Nc2ccc(Oc3cccc(C)c3)cc2)ccc2c1C(=O)N(C1CCC(=O)NC1=O)C2 (centres unmarked)" meas_value=112
compound="O=C1CCC(N2Cc3ccc(COC(=O)Nc4ccc(Oc5ccccc5Cl)cc4)c(OC4CCC4)c3C2=O)C(=O)N1 (centres unmarked)" meas_value=105
compound="O=C1CCC(N2Cc3ccc(COC(=O)Nc4ccc(Oc5ccc(F)c(F)c5)cc4)c(OC4CCOCC4)c3C2=O)C(=O)N1 (centres unmarked)" meas_value=106
compound="COc1c(COC(=O)Nc2ccc(Oc3cc(Cl)cc(Cl)c3)cc2F)ccc2c1C(=O)N(C1CCC(=O)NC1=O)C2 (centres unmarked)" meas_value=96
compound="CCOc1c(COC(=O)Nc2ccc(Oc3cccc(Cl)c3)cc2)ccc2c1C(=O)N(C1CCC(=O)NC1=O)C2 (centres unmarked)" meas_value=116
compound="O=C1CCC(N2Cc3ccc(COC(=O)Nc4ccc(Oc5ccc(F)c(F)c5)cc4)c(Oc4cccnc4)c3C2=O)C(=O)N1 (centres unmarked)" meas_value=100
compound="COc1cc(Oc2ccc(F)cc2OC)ccc1NC(=O)OCc1ccc2c(c1OC)C(=O)N(C1CCC(=O)NC1=O)C2 (centres unmarked)" meas_value=77
compound="CC(C)Oc1c(COC(=O)Nc2ccc(Oc3ccccc3Cl)cc2)ccc2c1C(=O)N(C1CCC(=O)NC1=O)C2 (centres unmarked)" meas_value=106
compound="COc1c(COC(=O)Nc2ccc(Oc3ccc(F)c(F)c3)cc2)ccc2c1C(=O)N([C@H]1CCC(=O)NC1=O)C2 (single isomer, unassigned)" meas_value=107
compound="O=C1CCC(N2Cc3ccc(COC(=O)Nc4ccc(Oc5ccc(F)c(F)c5)cc4)c(OC4COC4)c3C2=O)C(=O)N1 (centres unmarked)" meas_value=107

###

- assayed target: Cyclin E1 (Homo sapiens, UniProt P24864+Q96SW2)
- run description: Cyclin E1 Cellular Degradation Assay (MSD)
- Assay type: cell-based
- Design: endogenous in cells; host or cells: OVCAR3
- experimental setup: Cyclin E1 cellular degradation, maximum degradation
observation type: Dmax (%)

molecule="O=C1CCC(N2Cc3ccc(COC(=O)Nc4ccc(Oc5ccc(F)c(F)c5)cc4)c(O[C@H]4CCOC4)c3C2=O)C(=O)N1 (some centres unmarked) [Example 152]" meas_value=108
molecule="O=C1CCC(N2Cc3ccc(COC(=O)Nc4ccc(Oc5ccc(F)cc5Cl)cc4)c(O[C@@H]4CCOC4)c3C2=O)C(=O)N1 (some centres unmarked) [Example 155]" meas_value=100
molecule="CC(C)(O)COc1c(COC(=O)Nc2ccc(Oc3cc(F)c(F)c(F)c3)cc2F)ccc2c1C(=O)N(C1CCC(=O)NC1=O)C2 (centres unmarked) [Example 165]" meas_value=107
molecule="O=C1CCC(N2Cc3ccc(COC(=O)Nc4ccc(Oc5cccc(Cl)c5)cc4)c(O[C@@H]4CCOC4)c3C2=O)C(=O)N1 (some centres unmarked) [Example 158]" meas_value=104
molecule="COc1c(COC(=O)Nc2ccc(Oc3ccc(F)cc3F)cc2F)ccc2c1C(=O)N(C1CCC(=O)NC1=O)C2 (centres unmarked) [Example 30]" meas_value=103
molecule="COc1c(COC(=O)Nc2ccc(Cc3cccc(F)c3)cc2)ccc2c1C(=O)N(C1CCC(=O)NC1=O)C2 (centres unmarked) [Example 6]" meas_value=94
molecule="CC(C)Oc1c(COC(=O)Nc2ccc(Oc3ccc(F)cc3Cl)cc2)ccc2c1C(=O)N(C1CCC(=O)NC1=O)C2 (centres unmarked) [Example 124]" meas_value=103
molecule="O=C1CCC(N2Cc3ccc(COC(=O)Nc4ccc(Oc5ccc(F)cc5F)cc4)c(O[C@@H]4CCCOC4)c3C2=O)C(=O)N1 (some centres unmarked) [Example 145]" meas_value=111
molecule="O=C1CCC(N2Cc3ccc(COC(=O)Nc4ccc(Oc5ccc(F)c(F)c5)cc4F)c(O[C@@H]4CCOC4)c3C2=O)C(=O)N1 (some centres unmarked) [Example 154]" meas_value=100
molecule="O=C1CCC(N2Cc3ccc(COC(=O)Nc4ccc(Oc5ccccc5)cc4)c(Oc4cccnc4)c3C2=O)C(=O)N1 (centres unmarked) [Example 171]" meas_value=107
molecule="COc1c(COC(=O)Nc2ccc(Oc3cccc(F)c3)cc2C)ccc2c1C(=O)N(C1CCC(=O)NC1=O)C2 (centres unmarked) [Example 39]" meas_value=108
molecule="COc1c(COC(=O)Nc2ccc(Oc3cc(F)cc(F)c3)cc2)ccc2c1C(=O)N(C1CCC(=O)NC1=O)C2 (centres unmarked) [Example 13]" meas_value=113
molecule="COc1c(COC(=O)Nc2ccc(Oc3cccc(Cl)c3)cc2F)ccc2c1C(=O)N(C1CCC(=O)NC1=O)C2 (centres unmarked) [Example 26]" meas_value=106
molecule="O=C1CCC(N2Cc3ccc(COC(=O)Nc4ccc(Oc5ccc(F)cc5F)cc4)c(O[C@@H]4CCOC4)c3C2=O)C(=O)N1 (some centres unmarked) [Example 157]" meas_value=99

###

- assayed target: Cyclin E1 (Homo sapiens, UniProt P24864+Q96SW2)
- run description: Cyclin E1 Cellular Degradation Assay (MSD)
- Format: cell-based
- Parameters: endogenous in cells; host or cells: OVCAR3
- experimental setup: Cyclin E1 cellular degradation
observation type: DC50 (nM)

(A) O=C1CCC(N2Cc3ccc(COC(=O)Nc4ccc(Oc5ccc(F)cc5)cc4)c(OC4CCOCC4)c3C2=O)C(=O)N1 (stereo not shown)
(B) COc1c(COC(=O)Nc2ccc(Oc3cc(C)cc(C)c3)cc2)ccc2c1C(=O)N(C1CCC(=O)NC1=O)C2 (stereo not shown)
Q: Lower value for measured DC50? Options: A , B Bench note: the answer is the label of the chosen record.
Ans: A
(A: 25 nM, B: 82 nM)

(A) CC(C)(O)COc1c(COC(=O)Nc2ccc(Oc3ccc(F)c(F)c3)cc2)ccc2c1C(=O)N(C1CCC(=O)NC1=O)C2 (stereo not shown)
(B) CCOc1c(COC(=O)Nc2ccc(Oc3cccc(Cl)c3)cc2)ccc2c1C(=O)N(C1CCC(=O)NC1=O)C2 (stereo not shown)
Q: Choose between A and B : whose measured DC50 value is numerically larger? Bench note: the answer is the label of the chosen record.
Ans: B

(A) COc1cc(Oc2cc(F)c(F)cc2C)ccc1NC(=O)OCc1ccc2c(c1OC)C(=O)N(C1CCC(=O)NC1=O)C2 (stereo not shown)
(B) CCOc1c(COC(=O)Nc2ccc(Oc3ccccc3)cc2)ccc2c1C(=O)N(C1CCC(=O)NC1=O)C2 (stereo not shown)
Q: Lower value for measured DC50? Options: A , B Bench note: the answer is the label of the chosen record.
Ans: B
(B: 134 nM, A: 312 nM)

###

- assayed target: Cyclin E1 (Homo sapiens, UniProt P24864+Q96SW2)
- run description: Cyclin E1 Cellular Degradation Assay (MSD)
- Assay type: cell-based
- Parameters: endogenous in cells; host or cells: OVCAR3
- experimental setup: selectivity for degradation of Cyclin E1 over GSPT1
Each item that follows carries a reported Ratio of GSPT1 DC50/Cyclin E1 DC50.

Here is how some compounds turned out for Ratio of GSPT1 DC50/Cyclin E1 DC50.
compound="COc1c(COC(=O)Nc2ccc(Oc3ccccc3C(F)F)cc2F)ccc2c1C(=O)N(C1CCC(=O)NC1=O)C2 (stereo not shown)" assayed_target="Cyclin E1 (Homo sapiens, UniProt P24864+Q96SW2)" observation_type="Ratio of GSPT1 DC50/Cyclin E1 DC50" meas_value=>68
compound="COc1c(COC(=O)Nc2ccc(Oc3ccccc3Cl)cc2F)ccc2c1C(=O)N(C1CCC(=O)NC1=O)C2 (stereo not shown)" assayed_target="Cyclin E1 (Homo sapiens, UniProt P24864+Q96SW2)" observation_type="Ratio of GSPT1 DC50/Cyclin E1 DC50" meas_value=146
compound="COc1cc(Oc2cc(F)c(F)cc2F)ccc1NC(=O)OCc1ccc2c(c1OC)C(=O)N(C1CCC(=O)NC1=O)C2 (stereo not shown)" assayed_target="Cyclin E1 (Homo sapiens, UniProt P24864+Q96SW2)" observation_type="Ratio of GSPT1 DC50/Cyclin E1 DC50" meas_value=>72
compound="O=C1CCC(N2Cc3ccc(COC(=O)Nc4ccc(Oc5ccc(F)c(F)c5)cc4F)c(Oc4ccccc4)c3C2=O)C(=O)N1 (stereo not shown)" assayed_target="Cyclin E1 (Homo sapiens, UniProt P24864+Q96SW2)" observation_type="Ratio of GSPT1 DC50/Cyclin E1 DC50" meas_value=>53
compound="COc1c(COC(=O)Nc2ccc(Oc3cc(F)c(F)cc3C)cc2)ccc2c1C(=O)N(C1CCC(=O)NC1=O)C2 (stereo not shown)" assayed_target="Cyclin E1 (Homo sapiens, UniProt P24864+Q96SW2)" observation_type="Ratio of GSPT1 DC50/Cyclin E1 DC50" meas_value=>44

Ratio of GSPT1 DC50/Cyclin E1 DC50 reading for "O=C1CC[C@H](N2Cc3ccc(COC(=O)Nc4ccc(Oc5ccc(F)c(F)c5)cc4)c(OCCCc4ccccc4)c3C2=O)C(=O)N1" : >89

Ratio of GSPT1 DC50/Cyclin E1 DC50 reading for COc1c(COC(=O)Nc2ccc(Oc3ccc4ccsc4c3)cc2)ccc2c1C(=O)N(C1CCC(=O)NC1=O)C2 (stereo not shown) : 48
